assay details: yeast display, Sf9 membrane polyspecificity reagent, FACS + sequencing; frameworks hold sequencing errors
observation type: polyreactivity (PSR sort gate)

QVQLQESGGGLVQAGGSLRLSCAATGRTFRYNTMGWYRKATGKERELVARITWSGGSTYYADSVKGRFTISRDNAKNTVYLQMNSLKPEDTAVYYCAAVPILVYRWFQSYTGDYDYWGQGTQVTVSS    low polyreactivity
QGQLEESGGGLVQAGGSLRLSCAAYGRIFYEYAMGLYRQAPGKERELVAISTAGCNTYYADSVKGRFTISRDNGKNTDYLQMNILKPEDTAVYYCAARLQYYPYYYWGQGTQVTVSS    high polyreactivity
QVHLVESRGVLVQAGCSLRLSCAASGRIFTDYAMGWYRQAPRKERELVAAISGSGGSTYYADSVKVRFSISRDNAKNNVYLQMNSLKPEDTAVYYCAARVARRYEWGQGTQVTVSS    high polyreactivity
QVQLVESGGGLVQAGGSLRLSCAASGRIFAVYAMGWYRQAPGKERELVAAINNGASTNYADSVKGRFTISRDNAKNTVYLQMNSLKPEDTAVYYCAAYGYWGQGTQVTVSS    high polyreactivity

What value of measured polyreactivity (PSR sort gate) is listed for QVQLVESGGGLVQAGGSLRLSCAPSGSTFPLYAMGWYRQAHGNEREFVAAIRWIGGSTYYADSVKGRFTISRDNAKNTVYLQMNSLKPEDTAVYYCAADYVVSAFDYWGQGTQVTVSS ?
low polyreactivity

Do the same for QVQLVESGGGLVQAGGSLRLSCAASGRTFGKYTMGWYRQAPGKQRELFAAINRRGGSTYYADSVKGRFTISRDNANNTVYLQMNSLKPEDTAVYYCSTDGYSIDRYYWGQGTQVTESS please
high polyreactivity

Do the same for QVQIVESGGGLVQAGGSLRLSCAASGSILLYYPIGWYRQAPAKEREWVARITGSGSRTYYADSVKGRFTISRDNAKNTVFVQMHSVKPEDNAVYYCAADFSGHGWESVVGYGYWGQGTQVTVSS please
low polyreactivity

Do the same for QVQLVESGGGLVQAGGSLRLSCAASGSIFGLYAMGWYRQAPGKERELVAAINQSGGSTSYADSVKGRFTISRDNAKNTVYLQMNSLKPEDTAVYYCAADSAFYTGSDYGWSDYDYWGQGTQVTVSS please
low polyreactivity

Do the same for QVQLVESGGCLVQAGGSLRLRCAASGPNFPGYTKGWYRHAPRKAREFVAAISYSGGSTYADSVKGRFTISRDNAKNTVYLQMNSLKPEDTSVYYCAVFLQHWLDMYYWGQGTQVNVSS please
low polyreactivity

Do the same for QVQLVESGGGLVQAGGSLRLSCAASGITLGYSAMGGYRQAPGKEREFVAGITTSGGTTYYADSVKGRFTISRDNAKNTVYLQMNSLKPEDTAVYYCAVYGGVKRGSFYYWGQGTQVTVSS please
low polyreactivity

Do the same for QVQLVESGGGLVQAGGSLRLSCAAYGLTFRVYTMGWYRQAPGKERELVAAISTDGGSTYYADSVKGRFTISRDNAKNTVYFQMNSLKPEDTAVYYCAAKWYSYRWTQFDYWGQGTQVSVSS please
high polyreactivity

Do the same for QVQLVESGGGLVQAGGSLRLSCAASGSTFVYNAMGRYRQAPVKERELVAAISSGGSTYYADSVKGRFTISRDNAKNTVYLQMNSLKPEATAVYYCNARGSWRRDKYGTYYRYDYWGQGTQVTVSS please
high polyreactivity

Do the same for QVQLVESGGGLVQAGGSLRLSCAASGSTYATNAMRWYRQAPGKERELVATISWSGGSTYYADSVKGRFTISRDNAKNTVYLQMNSLKPEDTAVYYCAADWSNLGAYDYWGQGTQVTVSS please
low polyreactivity

Do the same for HVQLVESGGGLVQAGGSLRLSCAASGFIGIYAMGWYRQAPGKERELVAAITTSGGRTYYADSVKGRFTISRDNAKNTVYLQMNSLKPEDTAVYYCAAPWRLFSLYDYWGQGTQVTVSS please
low polyreactivity

Do the same for QVQLVESGGGLVQAGGSLRLSCAASGSILSYYAMGWYRQAPGKEREFVAAISSGGGTYYADSVKGRFTISRDNAKNTVYLQMNSLKPEDTAVYYCNAEIWTEGGYWGQGTQVTVSS please
low polyreactivity

Do the same for QVQLVESGGGLVQAGGSLRLSCAASGITFRYYAMGWSRQAPWKERELVAVISSTGITNYADSVKGRFTISRDNAKNTVYLQMNSLKPEDTAVYYCAAGLWYSYDYWGQGTQVTVSS please
high polyreactivity

Do the same for QVQLVESGGGLVQAGGSLRLSCPASGIIFNLYAMGWYRQAPGKERELVAAISWSGGSTDYADSVKGRFTISRDNAKNTVYLQMNSLKPEDTAVYYCATSFLYPYFDEDDYWGQGTQVTVSS please
high polyreactivity

Do the same for QVQLVESGVGLVQAVGSLRLSCAASGSILITNAMGWYRQAPGKERELVAAISSGGSTYYADSVKGRFTISRDNAKNTVYLQMNSLKPEDTAVYYFAADQLKVGREYVEYDYWGQGTQVTVSS please
low polyreactivity

Do the same for QVQLVESWGGLVQAGGTLRLSCAPSGYIFYFNDMGCYIQAPGKERELVAAITWSGTGTYYADSVKGRFTISRDNAKNTVYLQMNSLKPEDTAVYYCAAREWTSQDRQHNYWGQGTQVTVSS please
low polyreactivity

Do the same for QVQLVESGGGLVQAGGSLRLSCAASGRIFGGNAMGWYRQAPGKERELVAAITSGGGSTSYADSVKGRFTISRDNAKNTVYLQMNSLKPEDTAVYYCAAPATYGPFVIDTVYPRDGYWGQGTQVTVSS please
low polyreactivity

Do the same for QVQLVESGGGLVQAGGSLRLSCCASGFTFIVYSMGWYRQSPGKERELVAAITQSGGSTFYADSVKGRFTISRDNAKNTVYLQMNSLKPEDTAVYYCNAYRKFRYWGQGTQVTVSS please
low polyreactivity

----------
assay details: yeast display, Sf9 membrane polyspecificity reagent, FACS + sequencing; frameworks hold sequencing errors
observation type: polyreactivity (PSR sort gate)

QVQLVESGGGLVQAGGSLRLTCAASGRIFDTYAMVWYRQAPGKEMELVAAISRSGGRTYYADSVKGRFTISRDNANNTVYLQMNSLKPEDTAVYYCAARAYPYYWTGQKQSRFGYWGQGTQVTVSS    high polyreactivity
QVQLVESGGGLDQAGGSLRLSCAASGRILGYNALGWYRQAPGKERELVAAIRTGTTNYADSVKGRFTISRDNAKNTVYLQMNSLKPEDTAVYYCAALRPYNEGSSHLFRYDYWGQGTQVTVSS    low polyreactivity
QVQLVESGGGLVQAGGSLRLSCAASGRTFTRYTKGWYRQAPRKERDLVAASTRGGSTYADSVKGRFTNSRDNAKNTVYLEMNSLKPEDTAVYYCAAYWGFFPWRAYPYDYWGQGTQVTVSS    high polyreactivity
QVQLVESGGGLVQAGGSVRLSCAASGFTFGYYAMGWYRQAPGKERELVASISSVDNTYYADSVKGRFTISRDNAKNTVSFQMNSLKPEDTAVDYCAARYRDYFVRGGYWGQGTQVSVSS    high polyreactivity
QVQLVESGGGLVQAGGSLRLSCAASGFIFPQNAMGWYRQAPGKERELVAAIRWSGGRTYYADSVKGRFTISRDNAKNTVYLQMNSLNPEDTAVYYCAADVRQRGIYGPGPHYYWGQGTQVTVSS    high polyreactivity
QVKLVESGGGLVQAGGSLRLSCAASGRIFGRNTMGWYRQAPGKEREFVATITSGGSTYYADSVKGRFTISRDNAKNTVYLQMNSLKPEDTAVYYFNARGYSWRWYPLTSDYDSWGQGTQVTVSS    high polyreactivity
QVQLVESGGGLVQAGGSLRLSCAASGLTFEYYTMGWYIQAPGKERELVAAITSSGGSTYYADSVKGRFTISRDNAKNTVYLQMNSLKPVDTAVYYCAAYQIYQYDGTYDYWGQGTQVTVSS    low polyreactivity
QVQLVESGGGLVQAGGSLRLSCAASGFTFNYYAMGWYRQAPGKERELVAGITRSGVSTNYADSVKGRFTISRDNAKNTVYLQMNSLKPEDTAVYYCAREEGRRYRGWPYVYAPQHDYWGQGTQVTVSS    high polyreactivity
QVQLVESGGGLVQPGGSLRLSCAASGSIFTPNAMGWYRPAPGKERELVAAISSSSDRTYYADSVKGRFTISRDNAKNTVYLQMNSLKPEDTAVYYCAALSKTRGGYWGHGTQVTVSS    high polyreactivity
QVQLVESGGGLVQAGGSRRLSCAASGFMFGVNAMGWYRQAPGKERELVAVISVRGGSTYYADSLKGRFTISRDNAKNTVYLQMNSLKPEDTAVYYCAADTFAGYYYWGQGTQVTVSS    high polyreactivity

Turning now to a further sequence:
What value of measured polyreactivity (PSR sort gate) is listed for QVQLVESGGGLVQAGGSLRLSCAASGRTFTGYAMGWYRQAPGKEREFVAAITQRGGSTYYADSVKGRFTISRDNEKNTVYLQMNSLKAEDTAVYYCAARRRYKMDYWGQGTQVTVSS ?
high polyreactivity
